Where do the numbers come from? From PubChem BioAssay (EPA / NIEHS).

Assay: Tanguay_ZF_120hpf_NC_legacy: (Legacy) Oregon State University Tanguay Lab 120 Hour Post-fertilization zebrafish Assay for Notochord and Tail Malformation (AID 2283656)
Results filed as inconclusive are left out. Active and inactive are the calls of the source. The calls were made as follows: active = hit-call score of the fitted dose curve at least 0.9, where 1 is the maximum; inconclusive = response in the unintended direction; inactive = score below 0.9.
MEASURE NAME: outcome

O=C(O)Cn1c(=O)n(Cc2ccc(Br)cc2F)c(=O)c2ccc(Cl)cc21 inactive
CCCC(=O)OCCC(C)C inactive
CN(C)C(=O)C1(N2CCCCC2)CCN(CC[C@@]2(c3ccc(Cl)c(Cl)c3)CN(C(=O)c3ccccc3)CCO2)CC1 inactive
C[C@]12CC[C@@H]3c4ccc(O)cc4CC[C@H]3[C@@H]1CCC2=O inactive
CC[C@H](NC(=O)c1cc(F)ccc1NS(=O)(=O)c1cccc2cccnc12)c1ccccc1 inactive

Asked: Tell me the measured outcome of c1ccc2n[nH]nc2c1 , please.
Given back: inactive

Asked: Tell me the measured outcome of Cc1ccc(C(C)C)cc1 , please.
Given back: inactive

----------
Test: APR_HepG2_MitoticArrest_24hr: Apredica 24-hour HepG2 Assay for Mitotic Arrest (AID 2282910)
Details: high-content imaging, actives raise or lower the signal
Protocol: APR_HepG2_24hr is a cell-based, multiplexed-readout assay that uses HepG2, a human liver cell line, with measurements taken at 24 hours after chemical dosing in a 384-well plate.APR_HepG2_MitoticArrest_24hr is one of 10 assay component(s) measured or calculated from the APR_HepG2_24hr assay. […] This assay endpoint, APR_HepG2_MitoticArrest_24hr, was analyzed with bidirectional fitting relative to DMSO as the negative control and baseline of activity. […]
Activity calls are given as the source filed them. Rule for the calls: active = hit-call score of the fitted dose curve at least 0.9, where 1 is the maximum; inactive = score below 0.9.
MEASURE NAME: outcome

CCCOC(=O)c1cc(O)c(O)c(O)c1 inactive
CCCC(=O)OCCC(C)C inactive
Cc1occc1C(=O)Nc1ccc(C(=O)N2CCC(F)(F)/C(=C\C(=O)N3CCC(N4CCCCC4)CC3)c3ccccc32)cc1 inactive

----------
Read-out: ABC Transporter (ABCC3), ABCC3 (gene 8714)
Assay: LTEA_HepaRG_ABCC3: Life Technologies and Expression Analysis (LTEA) Assay for ABC Transporter (ABCC3) using HepaRG (AID 2283462)
Conditions: mRNA level, 48 h; actives raise or lower the signal
Activity calls are given as the source filed them. Rule for the calls: active = hit-call score of the fitted dose curve at least 0.9, where 1 is the maximum; inactive = score below 0.9.
Use one of these outcomes when replying: t (active), f (inactive)

O=C(Nc1ccc(Cl)cc1)Nc1ccc(Cl)c(Cl)c1 f
CC(C)(c1cc(Br)c(O)c(Br)c1)c1cc(Br)c(O)c(Br)c1 f
O=C(O)c1ccccc1C(=O)OCc1ccccc1 f
CN(C)C(=O)C1(N2CCCCC2)CCN(CC[C@@]2(c3ccc(Cl)c(Cl)c3)CN(C(=O)c3ccccc3)CCO2)CC1 t
O=CCCCC=O f
Cc1oc2c(NC(=O)c3c(Cl)cccc3Cl)cccc2c1C(C)(C)O t
O=C(O)Cn1c(=O)n(Cc2ccc(Br)cc2F)c(=O)c2ccc(Cl)cc21 f
CN1C(=O)CC[C@H]1c1cccnc1 f
CCCCOC(=O)c1ccc(O)cc1 f
Clc1cc(Cl)c2c(c1)N=C1CCCCCN1C2 f

Moving on to another compound below.
Asked: Please let me know the test result on file for NCc1cccc(C2CCN(C(=O)c3ccc(C#Cc4ccccc4F)o3)CC2)c1 .
Given back: f

----------
Read-out: Nuclear factor erythroid 2-related factor 2 (Homo sapiens) (UniProt Q16236)
Sequence (Q16236 whole entry, looked up): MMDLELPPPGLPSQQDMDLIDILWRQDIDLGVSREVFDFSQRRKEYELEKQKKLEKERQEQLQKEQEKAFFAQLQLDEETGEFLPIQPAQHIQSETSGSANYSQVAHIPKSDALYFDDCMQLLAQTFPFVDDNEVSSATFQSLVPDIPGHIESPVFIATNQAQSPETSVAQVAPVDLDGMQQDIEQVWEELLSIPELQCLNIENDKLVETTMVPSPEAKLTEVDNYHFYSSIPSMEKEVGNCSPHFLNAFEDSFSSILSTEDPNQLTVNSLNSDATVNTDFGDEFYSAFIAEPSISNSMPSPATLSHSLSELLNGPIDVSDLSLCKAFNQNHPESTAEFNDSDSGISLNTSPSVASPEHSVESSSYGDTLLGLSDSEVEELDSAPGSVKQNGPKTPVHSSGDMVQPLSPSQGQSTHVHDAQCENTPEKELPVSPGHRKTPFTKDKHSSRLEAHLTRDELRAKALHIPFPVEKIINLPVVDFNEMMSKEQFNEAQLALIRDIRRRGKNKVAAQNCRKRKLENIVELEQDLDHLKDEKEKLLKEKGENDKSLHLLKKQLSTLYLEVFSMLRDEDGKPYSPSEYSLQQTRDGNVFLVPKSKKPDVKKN
Assay: LTEA_HepaRG_NFE2L2: Life Technologies and Expression Analysis (LTEA) Assay for Nuclear factor erythroid 2-related factor 2 (NFE2L2) Transcription Factor using HepaRG (AID 2283527)
Settings: mRNA level, 48 h; actives raise or lower the signal
The source made the active and inactive calls. The calls were made as follows: active = hit-call score of the fitted dose curve at least 0.9, where 1 is the maximum; inactive = score below 0.9.
Use one of these outcomes when replying: class 1 for active, class 0 for inactive

CC(=O)N1CCN(c2ccc(OC[C@H]3CO[C@](Cn4ccnc4)(c4ccc(Cl)cc4Cl)O3)cc2)CC1 class 1
O=C1c2ccccc2C(=O)N1CCc1noc(-c2ccc(CN3CCCCCC3)s2)n1 class 0
CN(C)C(=O)C1(N2CCCCC2)CCN(CC[C@@]2(c3ccc(Cl)c(Cl)c3)CN(C(=O)c3ccccc3)CCO2)CC1 class 1
CCCCCCCCCCCC[N+](C)(C)C class 1
CCN(Cc1cccnc1)C(=O)c1cccc(Cl)c1[C@]1(C)C(=O)N(Cc2ccc(OC)cc2OC)c2ccc(Cl)cc21 class 1

Asked: Please let me know the test result on file for O=CCCCC=O .
Given back: class 0

Asked: Please let me know the test result on file for CCN(CC)C(=O)c1cc(S(=O)(=O)Cc2ccccc2)c(N2CCC(c3ccccc3)CC2)cc1N(CC)CCN(C)C .
Given back: class 1

----------
Read-out: solute carrier (SLCO1B1), SLCO1B1 (gene 10599)
Experiment: LTEA_HepaRG_SLCO1B1: Life Technologies and Expression Analysis (LTEA) Assay for solute carrier (SLCO1B1) using HepaRG (AID 2283530)
Details: mRNA level, 48 h; actives raise or lower the signal
Active and inactive are the calls of the source. Rule for the calls: active = hit-call score of the fitted dose curve at least 0.9, where 1 is the maximum; inactive = score below 0.9.
Use one of these outcomes when replying: active, inactive

COMPOUND	LABEL CLASS
Cc1ncc(CO)c(CO)c1O	inactive

Asked: Please let me know the test result on file for COCC(C)OCC(C)OCC(C)O (stereo not drawn) .
Given back: inactive

Asked: Please let me know the test result on file for CC(=O)N1CCN(c2ccc(OC[C@H]3CO[C@](Cn4ccnc4)(c4ccc(Cl)cc4Cl)O3)cc2)CC1 .
Given back: active

Asked: Please let me know the test result on file for COc1cc(C(=O)NC2CCN(C)CC2)ccc1Nc1ncc2c(n1)N(C1CCCC1)CC(F)(F)C(=O)N2C .
Given back: active

Asked: Please let me know the test result on file for O=C1c2ccccc2C(=O)N1CCc1noc(-c2ccc(CN3CCCCCC3)s2)n1 .
Given back: inactive

----------
Assay: BSK_SAg_SRB: Viability Assessment in the BioMAP Diversity Plus: SAg Assay (AID 2283096);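 also: cells read one day after compound addition; hits may be either gain or loss of signal compared with DMSO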
Conditions: primary human HUVEC with PBMC
Activity calls are given as the source filed them. The calls were made as follows: active = hit-call score of the fitted dose curve at least 0.9, where 1 is the maximum; inactive = score below 0.9.
Use one of these outcomes when replying: 1.0 = active, 0.0 = inactive

Field: example entries. Status: answers known.
NCc1cccc(C2CCN(C(=O)c3ccc(C#Cc4ccccc4F)o3)CC2)c1 1.0
O=C(O)c1ccccc1-n1cc(C(=O)O)c(=O)c2cc(Nc3c(F)cc(F)cc3Cl)c(Cl)cc21 0.0

Asked: Please let me know the test result on file for CCCCCCCCOC(=O)c1cc(O)c(O)c(O)c1 .
Given back: 1.0

Asked: Please let me know the test result on file for CCCCCCCCCCCC[N+](C)(C)C .
Given back: 1.0

Asked: Please let me know the test result on file for CCN(Cc1cccc(S(=O)(=O)O)c1)c1ccc(C(=C2C=CC(=[N+](CC)Cc3cccc(S(=O)(=O)O)c3)C=C2)c2ccccc2S(=O)(=O)[O-])cc1 .
Given back: 0.0

Asked: Please let me know the test result on file for O=C(O)Cc1cc(I)c(Oc2ccc(O)c(I)c2)c(I)c1 .
Given back: 0.0

Asked: Please let me know the test result on file for COc1cccc([C@H](O)C2CCN(CCc3ccc(F)cc3)CC2)c1OC .
Given back: 0.0

Asked: Please let me know the test result on file for Cc1oc2c(NC(=O)c3c(Cl)cccc3Cl)cccc2c1C(C)(C)O .
Given back: 1.0

----------
Read-out: ABC Transporter (ABCC2), ABCC2 (gene 1244)
Assay: LTEA_HepaRG_ABCC2: Life Technologies and Expression Analysis (LTEA) Assay for ABC Transporter (ABCC2) using HepaRG (AID 2283464)
Settings: mRNA level, 48 h; actives raise or lower the signal
Activity calls are given as the source filed them. How the source made its calls: active means hit-call score of the fitted dose curve at least 0.9, where 1 is the maximum; inactive means score below 0.9.
Use one of these outcomes when replying: active, inactive

Field: example entries. Status: answers known.
COc1cc(C(=O)NC2CCN(C)CC2)ccc1Nc1ncc2c(n1)N(C1CCCC1)CC(F)(F)C(=O)N2C active
Cc1occc1C(=O)Nc1ccc(C(=O)N2CCC(F)(F)/C(=C\C(=O)N3CCC(N4CCCCC4)CC3)c3ccccc32)cc1 inactive
CC[C@@H]1C[C@H](N(Cc2cc(C(F)(F)F)cc(C(F)(F)F)c2)C(C)=O)c2cc(C(F)(F)F)ccc2N1C(=O)OC(C)C active
CCN(CC)C(=O)c1cc(S(=O)(=O)Cc2ccccc2)c(N2CCC(c3ccccc3)CC2)cc1N(CC)CCN(C)C active
CCCCCCCCCC(=O)O inactive

Asked: Please let me know the test result on file for O=C1O[C@H]([C@@H](O)CO)C(O)=C1O .
Given back: inactive

Asked: Please let me know the test result on file for CC(C)(C)c1csc(-c2cc3cc(OCc4ccccc4CC(=O)O)ccc3o2)n1 .
Given back: active

----------
Read-out: E-selectin (Homo sapiens)
Assay: BSK_3C_Eselectin: BioMAP Diversity Plus: 3C Assay for Eselectin Biomarker Activity (AID 2283015)
Conditions: primary human endothelial cells (HUVEC); actives raise or lower the signal
Calls of active or inactive are those of the source. The calls were made as follows: active = hit-call score of the fitted dose curve at least 0.9, where 1 is the maximum; inactive = score below 0.9.
Use one of these outcomes when replying: active, inactive

CCCCOC(=O)c1ccc(O)cc1 inactive
Cc1cc2c(cc1C(F)(F)F)N(C(=O)Nc1ccc(Oc3cccnc3C)nc1)CC2 inactive
c1ccc2ccccc2c1 inactive
CCN(Cc1cccc(S(=O)(=O)O)c1)c1ccc(C(=C2C=CC(=[N+](CC)Cc3cccc(S(=O)(=O)O)c3)C=C2)c2ccccc2S(=O)(=O)[O-])cc1 inactive
CCCCCCCCOc1ccc(C(=O)c2ccccc2)c(O)c1 inactive
CC/C(=C(/CC)c1ccc(O)cc1)c1ccc(O)cc1 active
C[C@]12CC[C@@H]3c4ccc(O)cc4CC[C@H]3[C@@H]1CCC2=O inactive
COc1ccc2cc(S(=O)(=O)N[C@H](CC(=O)N[C@H](Cc3ccc(CN4[C@H](C)CCC[C@@H]4C)cc3)C(=O)N(C)C(C)C)c3ccc4c(c3)OCO4)ccc2c1 inactive
CC1=CC(=O)/C(=C(/C)O)C(=O)O1 inactive

Moving on to another molecule below.
Asked: Please let me know the test result on file for Cc1cccc2ccccc12 .
Given back: inactive
